- subject-of-test: T1, Human NKp46 His tag (Acro Biosystems, NC1-H52H4) (human, UniProt O76036 22-255)
- T1 construct: bought; also called human NKp46-his tagged protein
- test-details: FP competition vs BCY15035
Numbered stars: 1 amine (or outer) side, 2 acyl side, 3 side chain; on linkers, the order of the positions; unused ones are H or OH. Bridge positions count the residues as written; N and C are the ends. Square brackets hold non-standard residues; d marks the D form. Ends that are not written are not given here. TATA = O=C(CC[*:1])N1CN(C(=O)CC[*:2])CN(C(=O)CC[*:3])C1; Phe(4-F) = N[C@@H](Cc1ccc(F)cc1)C(=O)O
measurement-name: log10(Ki) (log10 of the value in nM)
Use the decimal logarithm of Ki (nM).

These recorded examples may help you get a feel for the data.
binder	log10(Ki)
Ac-CYLPDYLCGDEYC-NH2 (linker 1-8-13 via TATA; not fully specified, scaffold TATA) [BCY15634]	1.99
ACYLPDYLCGDAYCA-NH2 (linker 2-9-14 via TATA; also: cyclised with TATA, TATB or TBMT, scaffold TATA) [BCY15661]	3.25
ACYLPDYLCGDEYCA-NH2 (linker 2-9-14 via TATA; also: scaffold TATA, TATB or TBMT, scaffold TATA) [BCY15100]	1.69
Ac-ACYLPDYLCGDEYCA-NH2 (linker 2-9-14 via TATA, scaffold TATA) [BCY15635]	1.79
ACYLPDYLCGDEACA-NH2 (linker 2-9-14 via TATA; also: cyclised with TATA, TATB or TBMT, scaffold TATA) [BCY15662]	2.83
ACYLPDYLC[dA]DEYCA-NH2 (linker 2-9-14 via TATA; N-terminus assumed; SMILES CC(C)C[C@@H]1NC(=O)[C@H](Cc2ccc(O)cc2)NC(=O)[C@H](CC(=O)O)NC(=O)[C@@H]2CCCN2C(=O)[C@H](CC(C)C)NC(=O)[C@H](Cc2ccc(O)cc2)NC(=O)[C@@H](NC(=O)[C@H](C)N)CSCCC(=O)N2CN3CN(C2)C(=O)CCSC[C@H](NC1=O)C(=O)N[C@H](C)C(=O)N[C@@H](CC(=O)O)C(=O)N[C@@H](CCC(=O)O)C(=O)N[C@@H](Cc1ccc(O)cc1)C(=O)N[C@H](C(=O)N[C@@H](C)C(N)=O)CSCCC3=O, scaffold TATA) [BCY15650]	1.20

// next entry
Endpoint output: log10(Ki) of ACYLPD[Phe(4-F)]LCGDEYCA-NH2 (linker 2-9-14 via TATA; N-terminus assumed; SMILES CC(C)C[C@@H]1NC(=O)[C@H](Cc2ccc(F)cc2)NC(=O)[C@H](CC(=O)O)NC(=O)[C@@H]2CCCN2C(=O)[C@H](CC(C)C)NC(=O)[C@H](Cc2ccc(O)cc2)NC(=O)[C@@H](NC(=O)[C@H](C)N)CSCCC(=O)N2CN3CN(C2)C(=O)CCSC[C@@H](C(=O)N[C@@H](C)C(N)=O)NC(=O)[C@H](Cc2ccc(O)cc2)NC(=O)[C@H](CCC(=O)O)NC(=O)[C@H](CC(=O)O)NC(=O)CNC(=O)[C@H](CSCCC3=O)NC1=O, scaffold TATA) [BCY16135] . Value?
2.81
